# target: T1, Myo5, Q04439
# T1 sequence (Q04439 1072-1160, looked up): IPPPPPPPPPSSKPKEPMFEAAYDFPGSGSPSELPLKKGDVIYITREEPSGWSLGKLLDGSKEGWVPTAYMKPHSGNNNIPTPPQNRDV
# assay: SPOT array
# condition description: median of control spots 471
metric name: SPOT intensity

LPMNIQPDLPPRKIM :: 35
FYNRTAFQLPGDARV :: 1
MSPLGAPPPPPHKDH :: 108

A. GLRRARYKFPGQQKI
B. STPQTMRQAPKRPDA
Task item: Min SPOT intensity? A | B Identify your selection by its label.
Reply: A
